# assayed target: NAMPT (Homo sapiens, UniProt P43490)
# Construct: His tag; host or cells: E. coli
# Sequence (P43490 whole entry): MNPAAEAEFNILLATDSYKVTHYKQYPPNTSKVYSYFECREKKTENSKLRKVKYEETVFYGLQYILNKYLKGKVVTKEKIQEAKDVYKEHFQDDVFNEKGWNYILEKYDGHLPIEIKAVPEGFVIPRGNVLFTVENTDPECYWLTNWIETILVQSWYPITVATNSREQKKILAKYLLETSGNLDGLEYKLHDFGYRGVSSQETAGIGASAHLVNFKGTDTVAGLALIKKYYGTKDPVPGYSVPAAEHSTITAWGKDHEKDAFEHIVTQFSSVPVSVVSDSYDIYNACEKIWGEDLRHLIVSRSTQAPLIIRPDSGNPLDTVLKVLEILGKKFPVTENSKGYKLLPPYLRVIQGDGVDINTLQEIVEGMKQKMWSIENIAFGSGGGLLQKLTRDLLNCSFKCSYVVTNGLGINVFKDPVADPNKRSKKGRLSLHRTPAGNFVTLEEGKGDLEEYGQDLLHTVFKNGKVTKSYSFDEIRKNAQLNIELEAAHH
# protocol description: Biochemical inhibition assay: NAMPT enzymatic reaction, NMN quantified by mass spectrometry
# particulars: NAMPT enzymatic reaction; read-out: Biochem IC50
Below, each entry is listed alongside its reported pIC50.
Scale: pIC50 equals -log10([C]), with [C] in mol/L.

Solved cases (4 shown):
CCc1cccc(S(=O)(=O)c2ccc(CNC(=O)c3cnc4[nH]ncc4c3)cc2)c1    8.15
Cc1cc(F)cc(S(=O)(=O)c2ccc(CNC(=O)c3cc4cnccc4[nH]3)cc2)c1    8.08
Cc1cc(C)c(S(=O)(=O)c2ccc(CNC(=O)c3cnc4[nH]ncc4c3)cc2)cc1C    7.50
CCCCc1ccc(S(=O)(=O)c2ccc(CNC(=O)c3cnc4nccn4c3)cc2)cc1    8.28

Read the next record carefully.
Ask: Query pIC50 on NAMPT (Homo sapiens, UniProt P43490) for Cc1ccc(S(=O)(=O)c2ccc(CNC(=O)c3ccc4nccn4c3)cc2)c(F)c1
Reply: 7.67
